FYI, the data here is from PubChem BioAssay (Tox21).

- ASSAY EXPLANATION: qHTS assay to identify small molecule antagonists of the estrogen receptor beta (ER-beta) signaling pathway - cell viability counter screen (AID 1259382); note: nearly all actives have a fitted effect of over 55% in size
- RUN PARAMETERS: ER-beta-UAS-bla HEK293T viability, CellTiter-Glo luminescence, 16 h; series mostly up to 92.4 µM
Records with an inconclusive call do not appear. Active and inactive are the calls of the source. Calls come from the whole dose curve; as a rule, active = well fitted cell-killing curve with a large enough effect in the repeat runs; inconclusive = weak or mixed curves; inactive = flat fitted curve, though single readings scatter.
Bench note: report the call from active, inactive

Q: What call does the record list for ClC1=C(Cl)C2(Cl)C3C(Cl)C(Cl)CC3C1(Cl)C2(Cl)Cl (stereo unspecified) ?
Ans: inactive

Q: // outcome(item) with item = Cc1ccc(C(=O)Cl)cc1
Ans: inactive

Q: Record lookup: outcome of this test for CCOC(=O)C1(c2ccccc2)CCN(CCC(C#N)(c2ccccc2)c2ccccc2)CC1 ?
Ans: inactive

Q: Just curious, what result did CC(Cl)CN(C)C (stereo unspecified) get here?
Ans: inactive

Q: Recorded test call requested for CN(C)C(=S)S
Ans: active

Q: So what was the verdict on ClC(Cl)=C(Cl)Cl in this test?
Ans: inactive

Q: Name the outcome recorded for Cc1cc(C(C)(C)c2cc(C)c(O)c(C)c2)cc(C)c1O in the assay.
Ans: active

Q: What did the test return for C=CC(=O)OCC(COC(=O)C=C)(COC(=O)C=C)COC(=O)C=C ?
Ans: active

Q: What did this assay record as the result for N#CCCSCCC#N ?
Ans: inactive

Q: What call does the record list for COc1cc(C=O)cc2c1[C@H](COC(N)=O)[C@]1(OC(C)=O)ON2C[C@H]2[C@@H]1N2C(C)=O ?
Ans: inactive

###

- ASSAY EXPLANATION: qHTS assay to identify small molecule agonists of the androgen receptor (AR) signaling pathway in the presence of an antagonist - cell viability counter screen (AID 1259379); note: nearly all actives have a fitted effect of over 25% in size
- RUN PARAMETERS: MDA-kb2 viability, CellTiter-Fluor, 16 h; series mostly up to 92.4 µM
Records with an inconclusive call do not appear. Activity calls are given as the source filed them. The call rests on the fitted dose curve; in most records, active means well fitted cell-killing curve with a large enough effect in the repeat runs; inconclusive means weak or mixed curves, or effect the other way; inactive means flat fitted curve, though single readings scatter.
Respond using exactly one of the listed classes: 1 = active, 0 = inactive

Examples from the recorded data:
COMPOUND: O=C1c2ccccc2C(=O)C1C(=O)C(c1ccccc1)c1ccc(Cl)cc1 (stereo unspecified)
DISCRETE LABEL: 1
--
COMPOUND: O=[N+]([O-])c1ccc2ccc3cccc4ccc1c2c34
DISCRETE LABEL: 1
--
COMPOUND: COc1ccc(/C(=C/C(=O)N2CCOCC2)c2ccc(Cl)cc2)cc1OC
DISCRETE LABEL: 0

Shift focus to the following entry.
Q: Which outcome did this test record for the compound C[CH2][Hg][N]1C(=O)C2C(C1=O)C1(Cl)C(Cl)=C(Cl)C2(Cl)C1(Cl)Cl (stereo unspecified) ?
Ans: 1

###

- ASSAY EXPLANATION: qHTS assay for small molecule disruptors of the mitochondrial membrane potential - cell viability (AID 720634); note: nearly all actives have a fitted effect of over 20% in size
- RUN PARAMETERS: HepG2 viability, ATP luminescence (CellTiter-Glo), 1 h; series mostly up to 83.2 µM
- Protocol: U.S. Tox21 Program National Center for Advancing Translational Sciences [NCATS] NIH Chemical Genomics Center [NCGC] U.S. Environmental Protection Agency [EPA] National Institutes of Environmental Health Sciences [NIEHS] National Toxicology Program [NTP] […] Measuring MMP in living cells is commonly used to assess the effect of chemicals on mitochondrial function; decreases in MMP can be detected using lipophilic cationic fluorescent dyes. […] The cytotoxicity was measured in the same assay well of MMP assay. […]
Inconclusive results are not listed. The source made the active and inactive calls. Calls follow the shape of the full dose curve.
Please reply with one of these outcomes: active, inactive

Q: # fetch the recorded call for O=[N+]([O-])c1ccc(Oc2ccc(C(F)(F)F)cc2[N+](=O)[O-])cc1 here
Ans: active

Q: Answer briefly: the call reported for Clc1ccc(CSC(Cn2ccnc2)c2ccc(Cl)cc2Cl)cc1 (stereo not given) in this assay.
Ans: inactive

Q: # fetch the recorded call for CN(C)CCc1c[nH]c2cccc(O)c12 here
Ans: inactive

Q: Which outcome was assigned to BrC(Br)Br in this test?
Ans: inactive

Q: Field: outcome | Entry: O=C(CCl)C(Cl)Cl
Ans: active

###

- ASSAY EXPLANATION: qHTS RealTime-Glo MT Cell Viability Assay in HEK293 cells - 32 hour (AID 1224868); note: nearly all actives have a fitted effect of over 50% in size; note: potency is the fitted concentration of half-maximal effect
- RUN PARAMETERS: RealTime-Glo luminescence; series mostly up to 76.8 µM
Results filed as inconclusive are left out. Calls of active or inactive are those of the source. The call rests on the fitted dose curve; in most records, active means well fitted cell-killing curve with a large enough effect in the repeat runs; inconclusive means weak or mixed curves, or effect the other way; inactive means flat fitted curve, though single readings scatter.
OBSERVATION TYPE: Potency

COMPOUND: O=c1[nH]c2ccccc2n1CCCN1CCC(n2c(=O)[nH]c3cc(Cl)ccc32)CC1
MEAS VALUE: 10.7 µM (active)
--
COMPOUND: COC(=O)N(C(=O)N1COC2(C(=O)OC)Cc3cc(Cl)ccc3C2=N1)c1ccc(OC(F)(F)F)cc1 (centres undefined)
MEAS VALUE: inactive
--
COMPOUND: CN(C)CCc1c[nH]c2cccc(O)c12
MEAS VALUE: inactive
--
COMPOUND: C=CCOC(N)=O
MEAS VALUE: inactive

Input COC[C@H](C)N(C(=O)CCl)c1c(C)csc1C . Output Potency: inactive

Entry Cc1cc(C)c(C2=C(OC(=O)CC(C)(C)C)C3(CCCC3)OC2=O)c(C)c1 , Potency reported as inactive

// CN(C)C(=S)[S-].CN(C)C(=S)[S-].[Cu+2] : Potency value = 1.34 µM (active)

Query C[As+](C)(C)CC(=O)[O-] yields Potency of inactive

Briefly, Potency measured for CNC(C)Cc1ccc2c(c1)OCO2 (centres undefined) : inactive

###

- ASSAY EXPLANATION: qHTS assay to identify small molecule antagonists of the thyroid receptor (TR) signaling pathway - cell viability counter screen (AID 743064); note: nearly all actives have a fitted effect of over 50% in size
- RUN PARAMETERS: GH3.TRE-Luc viability, CellTiter-Fluor, 24 h; series mostly up to 70.3 µM
Records with an inconclusive call do not appear. The source made the active and inactive calls. The call rests on the fitted dose curve; in most records, active means well fitted cell-killing curve with a large enough effect in the repeat runs; inconclusive means weak or mixed curves, or effect the other way; inactive means no such curve, though single readings can be large or run the other way.
Return exactly one item of active, inactive

Some solved entries appear below for comparison.
COMPOUND: CC(=O)[O-].CC(=O)[O-].O.O.[Cd+2]
DISCRETE LABEL: active
//
COMPOUND: CCOc1cc(C(C)(C)C)ccc1C1COC(c2c(F)cccc2F)=N1 (stereo not drawn)
DISCRETE LABEL: active
//
COMPOUND: O=C(CCl)Nc1ccccc1
DISCRETE LABEL: active
//
COMPOUND: CCOCn1c(-c2ccc(Cl)cc2)c(C#N)c(Br)c1C(F)(F)F
DISCRETE LABEL: active
//
COMPOUND: FC(F)(F)c1cccc(C2=CCN(CCc3ccc4ccccc4c3)CC2)c1
DISCRETE LABEL: inactive
//
COMPOUND: Oc1ccc(C(=C(Cl)Cl)c2ccc(O)cc2)cc1
DISCRETE LABEL: inactive

Q: Please let me know the test result on file for O=c1oc2ccccc2c(O)c1Cc1c(O)c2ccccc2oc1=O .
Ans: inactive

Q: How did this test come out for CC(=O)c1cc(C(C)(C)C)cc2c1CCC2(C)C ?
Ans: active

Q: For Clc1ccc(-c2ccc(Cl)c(Cl)c2Cl)c(Cl)c1Cl , which call appears in the assay record?
Ans: inactive

Q: In this assay, the call recorded for COc1cc(N)c(Cl)cc1C(=O)NC1CN2CCC1CC2 (stereo not drawn) was what?
Ans: inactive

Q: Call for entry CCC[CH2][Sn]([CH2]CCC)([CH2]CCC)[O]C(=O)c1ccccc1 :
Ans: active

Q: Hi, sorry to bother you, what did the test record for CC(c1ccc(O)cc1)c1ccc(O)cc1 ?
Ans: inactive

###

- ASSAY EXPLANATION: qHTS assay to identify small molecule agonists of the sonic hedgehog signaling (Shh) pathway - cell viability counter screen (AID 1259366); note: nearly all actives have a fitted effect of over 50% in size
- RUN PARAMETERS: NIH/3T3 Gli1-Luc viability, CellTiter-Fluor, 24 h; series mostly up to 92.4 µM
Results filed as inconclusive are left out. The source made the active and inactive calls. The call rests on the fitted dose curve; in most records, active means well fitted cell-killing curve with a large enough effect in the repeat runs; inconclusive means weak or mixed curves, or effect the other way; inactive means flat fitted curve, though single readings scatter.
Hi! Could you answer with just one of these? true for active, false for inactive

COMPOUND: COc1cc(N)c(Cl)cc1C(=O)NC1CN2CCC1CC2 (configuration not stated)
DISCRETE LABEL: false
--
COMPOUND: ClC1=C(Cl)C2(Cl)C3C(Cl)C=CC3C1(Cl)C2(Cl)Cl (configuration not stated)
DISCRETE LABEL: false
--
COMPOUND: COc1ccc(OC)c(C=O)c1
DISCRETE LABEL: false
--
COMPOUND: C[CH2][Hg][N]1C(=O)C2C(C1=O)C1(Cl)C(Cl)=C(Cl)C2(Cl)C1(Cl)Cl (configuration not stated)
DISCRETE LABEL: true
--
COMPOUND: COCC(=O)N(c1c(C)cccc1C)[C@H](C)C(=O)OC
DISCRETE LABEL: false
--
COMPOUND: Cc1cc(C(F)(C(F)(F)F)C(F)(F)F)ccc1NC(=O)c1cccc(I)c1C(=O)NC(C)(C)CS(C)(=O)=O
DISCRETE LABEL: false

Q: Which outcome did this test record for the compound CCc1cc(C)cc(CC)c1-c1c(OC(=O)C(C)(C)C)n2n(c1=O)CCOCC2 ?
Ans: true

Q: Record lookup: outcome of this test for N#CCCC(Br)(C#N)CBr (configuration not stated) ?
Ans: true

Q: Look up the recorded call for COc1ccc(OC)c(CC(C)N)c1 (configuration not stated) in this test.
Ans: false

Q: Just curious, what result did C=CC(=O)OCCCCOC(=O)C=C get here?
Ans: true

Q: How was CCCCCCCCCCCCCN1CC(C)OC(C)C1 (configuration not stated) classified in this test?
Ans: false
